experiment: qHTS of pediatric cancer cell lines to identify multiple opportunities for drug repurposing: Primary screen for Rh41 cells (AID 1347108); conditions: Rh41 rhabdomyosarcoma viability, CellTiter-Glo luminescence, 48 h; series mostly up to 46 µM; note: nearly all actives have a fitted effect of over 70% in size; note: potency is the fitted concentration of half-maximal effect
Results filed as inconclusive are left out. Active and inactive are the calls of the source. Calls come from the whole dose curve; as a rule, active = well fitted cell-killing curve with a large enough effect; inconclusive = small, poorly fitted or top-dose-only effect; inactive = no such curve, though single readings can be large or run the other way.
measuredAttribute: Potency

# example entries with known answers
>>> print(df.to_string())
                                   compound  measuredattribute              val
0  COC(C)(C)CCCC(C)C/C=C/C(C)=C/C(=O)OC(C)C (stereo not given)            Potency         inactive
1  COC(=O)c1cncn1C(C)c1ccccc1 (stereo not given)            Potency         inactive
2                          Fc1cc(Br)ccc1CBr            Potency         inactive
3  C[C@]12CC[C@H]3[C@@H](CCC4=CC(=O)CC[C@@]43C)[C@H]1CC[C@H]2OC(=O)CCC1CCCC1            Potency         inactive
4  CCNC(=O)C[C@@H]1N=C(c2ccc(Cl)cc2)c2cc(OC)ccc2-n2c(C)nnc21            Potency  5.9 µM (active)

// lookup Potency for CN1[C@H]2CC(O)C[C@H]1[C@H]1O[C@H]12 (stereo not given in full)
23.5 µM (active)

// lookup Potency for Cc1ccccc1-n1c(Cn2ncc3c(N)ncnc32)nc2cccc(C)c2c1=O
0.935 µM (active)

// lookup Potency for CC(Cc1ccc(O)cc1)NCC(O)c1cc(O)cc(O)c1 (stereo not given)
inactive

// lookup Potency for CCOP(=O)(NC(C)C)Oc1ccc(SC)c(C)c1 (stereo not given)
inactive

// lookup Potency for CN(C)[C@@H]1C(=O)C(C(N)=O)=C(O)[C@@]2(O)C(=O)C3=C(O)c4c(O)cccc4[C@@](C)(O)[C@H]3[C@H](O)[C@@H]12
inactive
